Source listed as patent US10513521B2.

- Assay Target: ALK3 (Homo sapiens, UniProt P36894)
- Sequence (P36894 24-532): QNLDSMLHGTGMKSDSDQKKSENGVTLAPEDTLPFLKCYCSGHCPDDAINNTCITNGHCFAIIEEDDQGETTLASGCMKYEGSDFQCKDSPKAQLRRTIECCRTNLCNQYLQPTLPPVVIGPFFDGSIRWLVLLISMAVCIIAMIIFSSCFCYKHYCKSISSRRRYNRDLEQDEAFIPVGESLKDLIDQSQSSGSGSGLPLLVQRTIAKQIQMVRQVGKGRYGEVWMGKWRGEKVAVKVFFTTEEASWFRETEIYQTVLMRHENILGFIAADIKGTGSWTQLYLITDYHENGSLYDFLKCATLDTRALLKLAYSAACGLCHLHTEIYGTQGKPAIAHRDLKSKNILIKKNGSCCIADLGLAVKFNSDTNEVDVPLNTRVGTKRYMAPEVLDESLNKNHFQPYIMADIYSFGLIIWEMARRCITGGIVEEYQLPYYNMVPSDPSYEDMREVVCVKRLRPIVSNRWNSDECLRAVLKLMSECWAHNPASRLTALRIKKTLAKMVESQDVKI
- Assay Procedure: TR-FRET enzymatic ALK kinase assay, ALK3
pIC50: −log10 of the molar value.
Recorded Metric: pIC50

| Molecule | pIC50 |
| --- | --- |
| CC1CCN(c2ccc(-c3cnc4c(-c5ccc(S(N)(=O)=O)c6ccccc56)cnn4c3)cn2)CC1 [Compound 47] | < 5.00 |
| NC(c1ccc(-c2cnn3cc(-c4ccc(OCCN5CCCC5)cc4)cnc23)c2ccccc12)C(F)(F)F (stereo not drawn) [Compound 162] | < 5.00 |
| c1cc(-c2nn[nH]n2)cc(-c2cnn3cc(-c4ccc(CCN5CCCCC5)cc4)cnc23)c1 [Compound 89] | < 5.00 |
| CC(O)c1cccc(-c2cnn3cc(-c4ccc(C5CCNC5)cc4)cnc23)c1 (stereo not drawn) [Compound 130] | < 5.00 |
| CN1CCN(c2ccc(-c3cnc4c(-c5ccc(S(N)(=O)=O)c6ccccc56)cnn4c3)cc2)CC1 [Compound 62] | < 5.00 |

# batch: return pIC50 for each of the 6 molecules below
1. CS(=O)(=O)c1cccc(-c2cnn3cc(-c4ccc(CN5CCCCC5)cc4)cnc23)c1 [Compound 123]
2. NS(=O)(=O)c1ccc(-c2cnn3cc(-c4ccc(OC(F)(F)CN5CCCCC5)cc4)cnc23)c2ccccc12 [Compound 206]
3. CN1CCC(c2ccc(-c3cnc4c(-c5ccc(S(N)(=O)=O)c6ccccc56)cnn4c3)cc2)CC1 [Compound 80]
4. C[C@@H](O)c1cccc(-c2cnn3cc(-c4ccc(CCN5CCOCC5)cc4)cnc23)c1 [Compound 158]
5. Cc1ccc(-c2cnn3cc(-c4ccc(N5[C@H](C)CNC[C@@H]5C)cc4)cnc23)cc1S(N)(=O)=O [Compound 55]
6. C[C@@H]1CNC[C@H](C)N1c1ccc(-c2cnc3c(-c4ccc([S+](N)(=O)[O-])c(C(F)(F)F)c4)cnn3c2)cc1 [Compound 53]

Response:
1. < 5.00
2. < 5.00
3. < 5.00
4. < 5.00
5. < 5.00
6. < 5.00

----------
- Assay Target: ALK4 (Homo sapiens, UniProt P36896)
- Sequence (P36896 24-505): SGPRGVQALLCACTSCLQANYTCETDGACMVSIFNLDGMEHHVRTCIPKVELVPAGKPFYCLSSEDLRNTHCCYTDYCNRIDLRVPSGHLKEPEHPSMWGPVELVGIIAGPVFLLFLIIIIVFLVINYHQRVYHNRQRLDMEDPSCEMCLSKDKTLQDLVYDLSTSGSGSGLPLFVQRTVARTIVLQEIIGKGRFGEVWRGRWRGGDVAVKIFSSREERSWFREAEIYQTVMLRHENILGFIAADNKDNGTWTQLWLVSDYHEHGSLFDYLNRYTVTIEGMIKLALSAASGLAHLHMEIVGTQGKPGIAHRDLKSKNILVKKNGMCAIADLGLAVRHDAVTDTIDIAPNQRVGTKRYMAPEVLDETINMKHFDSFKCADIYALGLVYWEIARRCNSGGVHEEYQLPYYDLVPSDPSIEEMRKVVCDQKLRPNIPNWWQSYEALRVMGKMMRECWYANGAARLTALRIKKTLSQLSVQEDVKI
- Assay Procedure: TR-FRET enzymatic ALK kinase assay, ALK4
pIC50: −log10 of the molar value.
Recorded Metric: pIC50

| Compound | pIC50 |
| --- | --- |
| NC(=O)c1ccc(-c2cnn3cc(-c4ccc(N5CCNCC5)cc4)cnc23)c2ccccc12 | 4.95 |

// for each compound in input: emit pIC50
1. O=[S+]([O-])(c1cccc(-c2cnn3cc(-c4ccc(C5CCNCC5)cc4)cnc23)c1)C1CC1
2. C[S+](=O)([O-])c1cccc(-c2cnn3cc(-c4ccc(OC5(CN6C7CCC6CC7)CC5)cc4)cnc23)c1

Response:
1: < 5.00; 2: < 5.00

Please report pIC50 for every entry that follows.
1. CC(O)c1cccc(-c2cnn3cc(-c4ccc(OC5(CN6CCOCC6)CC5)cc4)cnc23)c1 (centres unmarked)
2. CS(=O)(=O)c1cccc(-c2cnn3cc(-c4ccc(OC5(CN6CCCC6)CC5)cc4)cnc23)c1
3. CS(=O)(=O)c1cccc(-c2cnn3cc(-c4ccc(C5CCCNC5)cc4)cnc23)c1 (centres unmarked)

Response:
["< 5.00", "< 5.00", "< 5.00"]

Fill in pIC50 for each of the 2 compounds listed.
1. CN(C)CCOc1ccc(-c2cnc3c(-c4ccc(S(N)(=O)=O)c5ccccc45)cnn3c2)cc1
2. C[C@@H]1CNC[C@H](C)N1c1ccc(-c2cnc3c(-c4cccc5c(CO)cccc45)cnn3c2)cc1

Response:
1: < 5.00; 2: 5.40
